Target: HLA-A*02:01 (Homo sapiens, UniProt P04439, D140Y/D185E/D98H/E176V/E277Q/G131W/G231S/I119V/I121R/I166T/I218V/L300P/L318F/N151K/N90K/P208A/P217A/Q86G/Q94H/R138H/R169H/T345S)
Assay: MHC binding assay, UV-ligand exchange with beta2m ELISA (exchange yield), HLA-A*02
Settings: binding to HLA-A*02 ranged by peptide exchange yield
attributeMeasured: Peptide exchange (MHC class I binding score)

{"substance": "6 (FLDPAQRDL; listed as Homo sapiens) [compound 6]", "result": "+++ (50%-75% = +++)"}
{"substance": "336 (GLMDGSPHFL; listed as Homo sapiens) [compound 336]", "result": "++ (20%-49% = ++)"}
{"substance": "92 (LLRGPPVARA; listed as Homo sapiens) [compound 92]", "result": "++ (20%-49% = ++)"}
{"substance": "53 (SLLSHVIVA; listed as Homo sapiens) [compound 53]", "result": "+++ (50%-75% = +++)"}
{"substance": "326 (SLLPLVWKI; listed as Homo sapiens) [compound 326]", "result": "+++ (50%-75% = +++)"}
{"substance": "8 (KLGPFLLNA; listed as Homo sapiens) [compound 8]", "result": "+++ (50%-75% = +++)"}
{"substance": "43 (LLWAGPVTA; listed as Homo sapiens) [compound 43]", "result": "+++ (50%-75% = +++)"}
{"substance": "69 (GIYDGILHSI; listed as Homo sapiens) [compound 69]", "result": "+++ (50%-75% = +++)"}
{"substance": "10 (KTLDVFNIIL; listed as Homo sapiens) [compound 10]", "result": "++ (20%-49% = ++)"}
{"substance": "58 (ALDDSLTSL; listed as Homo sapiens) [compound 58]", "result": "++ (20%-49% = ++)"}
{"substance": "29 (TLCNKTFTA; listed as Homo sapiens) [compound 29]", "result": "+++ (50%-75% = +++)"}
{"substance": "37 (ALINDILGELVKL; listed as Homo sapiens) [compound 37]", "result": "+++ (50%-75% = +++)"}
{"substance": "56 (KILDLTRVL; listed as Homo sapiens) [compound 56]", "result": "++ (20%-49% = ++)"}
{"substance": "66 (FITDFYTTV; listed as Homo sapiens) [compound 66]", "result": "+++ (50%-75% = +++)"}
{"substance": "7 (AAAAKVPEV; listed as Homo sapiens) [compound 7]", "result": "+++ (50%-75% = +++)"}
{"substance": "54 (FINPKGNWLL; listed as Homo sapiens) [compound 54]", "result": "+++ (50%-75% = +++)"}
{"substance": "77 (IVLSTIASV; listed as Homo sapiens) [compound 77]", "result": "+++ (50%-75% = +++)"}
{"substance": "60 (FLIDTSASM; listed as Homo sapiens) [compound 60]", "result": "++ (20%-49% = ++)"}
{"substance": "62 (SLFNQEVQI; listed as Homo sapiens) [compound 62]", "result": "+++ (50%-75% = +++)"}
{"substance": "3 (TLLGKQVTL; listed as Homo sapiens) [compound 3]", "result": "+++ (50%-75% = +++)"}
